Readings of Papp for the listed molecules
Test: Effective permeability of the compound by PAMPA
Assay type: physicochemical
Settings: read-out: Peff

{"columns": ["structure.smiles", "Papp"],
 "data": [
  ["CC(=O)c1ccc(OCCCN2CCN(Cc3ccccc3)CC2)cc1O", "13.3 ×10⁻⁶ cm/s"],
  ["CN1C(C(=O)Nc2ccccn2)=C(O)c2ccccc2S1(=O)=O", "0.72 to 2.5 ×10⁻⁶ cm/s"],
  ["Cn1c(=O)c2c(ncn2C)n(C)c1=O", "1.28 to 1.3 ×10⁻⁶ cm/s"]
]}

Now let's try a different one.
Provide Papp value for the following molecule: Clc1cccc(Cl)c1N=C1NCCN1
5.1 to 5.3 ×10⁻⁶ cm/s

* * *

Measured pIC50 on Acetylcholinesterase (Electrophorus electricus, UniProt O42275) follows.
Sequence (O42275 whole entry): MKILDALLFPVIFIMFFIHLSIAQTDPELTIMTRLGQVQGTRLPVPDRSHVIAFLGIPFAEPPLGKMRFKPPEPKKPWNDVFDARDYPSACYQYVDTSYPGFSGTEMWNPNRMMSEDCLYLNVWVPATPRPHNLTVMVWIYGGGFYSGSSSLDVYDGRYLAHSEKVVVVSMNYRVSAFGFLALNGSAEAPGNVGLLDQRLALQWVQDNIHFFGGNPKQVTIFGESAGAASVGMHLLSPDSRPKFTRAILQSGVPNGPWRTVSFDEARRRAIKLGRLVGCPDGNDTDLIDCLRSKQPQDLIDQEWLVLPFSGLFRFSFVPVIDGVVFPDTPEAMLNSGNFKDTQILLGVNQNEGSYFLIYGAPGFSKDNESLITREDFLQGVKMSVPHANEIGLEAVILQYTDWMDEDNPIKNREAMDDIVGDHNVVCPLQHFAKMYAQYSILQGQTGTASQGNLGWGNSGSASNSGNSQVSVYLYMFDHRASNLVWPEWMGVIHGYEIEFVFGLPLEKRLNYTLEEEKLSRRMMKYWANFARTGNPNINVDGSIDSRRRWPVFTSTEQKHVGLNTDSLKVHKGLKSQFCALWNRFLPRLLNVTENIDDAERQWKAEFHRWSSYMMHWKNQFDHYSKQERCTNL
# pIC50: negative log10 of molar concentration; output just the value

Provide pIC50 value for the following molecule: CC(=O)c1ccc(OCCCCCCN2CCN(c3ccccn3)CC2)cc1O
4.59

* * *

Measured IC50 on Acetylcholinesterase (Electrophorus electricus, UniProt O42275) follows.
Number only, in µM; omit the unit.

{"columns": ["structure.smiles", "assay.metric", "unit.descriptor", "test.result"],
 "data": [
  ["CC(=O)c1ccc(OCCCCCN2CCCCC2)cc1O", "IC50", "µM", 5.5],
  ["CC(=O)c1ccc(OCCCCCCN2CCN(Cc3ccccc3)CC2)cc1O", "IC50", "µM", 16.8],
  ["CC(=O)c1ccc(OCCCN2CCN(c3ncccn3)CC2)cc1O", "IC50", "µM", 26.3],
  ["CC(=O)c1ccc(OCCCCCCN2CCCC2)cc1O", "IC50", "µM", 3.9],
  ["CC(=O)c1ccc(OCCCN2CCCC2)cc1O", "IC50", "µM", 41.3],
  ["CC(=O)c1ccc(OCCCCN2CCCC2)cc1O", "IC50", "µM", 16.7]
]}

Now let's try a different one.
Provide IC50 value for the following compound: CC(=O)c1ccc(OCCCCCN2CCN(c3ccccn3)CC2)cc1O
21.9
